system: Canis familiaris; test: Mean arterial pressure response following 10 mg/kg intraduodenal administration to salt depleted dog; details: in vivo, other
Some compounds, each annotated with its measured Arterial pressure.
Quick note: give the figure in % mmHg min, leave out the unit.

Please review the following examples before continuing.
* CCCC[C@H](N[C@@H](Cc1ccccc1)C(=O)N1CCC(OCOC)CC1)C(=O)N[C@@H](CC1CCCCC1)[C@@H](O)C[C@H](C(=O)NCCC[N+]1([O-])CCOCC1)C(C)C | 6881
* CCCC[C@H](N[C@@H](Cc1ccccc1)C(=O)N1CCC(OCOC)CC1)C(=O)N[C@@H](CC1CCCCC1)[C@@H](O)C[C@H](C(=O)NCCCN1CCOCC1)C(C)C | 10803
* CCCC[C@H](N[C@@H](Cc1ccccc1)C(=O)N1CCC(OCOC)CC1)C(=O)N[C@@H](CC1CCCCC1)[C@@H](O)C[C@H](C(=O)NCCN1CCOCC1)C(C)C | 6449

Next:
Sample CCCC[C@H](N[C@@H](Cc1ccccc1)C(=O)N1CCC(OCOC)CC1)C(=O)N[C@@H](CC1CCCCC1)[C@@H](O)C[C@H](C(=O)NCC(C)(C)N1CCOCC1)C(C)C ; Arterial pressure observed: 8525
